biological target: Neuronal acetylcholine receptor; alpha4/beta2 (Rattus norvegicus, UniProt P09483+P12390); assay: Binding affinity towards Nicotinic acetylcholine receptor alpha4-beta2 in rat brain using [3H]-cytisine as radioligand
Sequence (P09483 whole entry): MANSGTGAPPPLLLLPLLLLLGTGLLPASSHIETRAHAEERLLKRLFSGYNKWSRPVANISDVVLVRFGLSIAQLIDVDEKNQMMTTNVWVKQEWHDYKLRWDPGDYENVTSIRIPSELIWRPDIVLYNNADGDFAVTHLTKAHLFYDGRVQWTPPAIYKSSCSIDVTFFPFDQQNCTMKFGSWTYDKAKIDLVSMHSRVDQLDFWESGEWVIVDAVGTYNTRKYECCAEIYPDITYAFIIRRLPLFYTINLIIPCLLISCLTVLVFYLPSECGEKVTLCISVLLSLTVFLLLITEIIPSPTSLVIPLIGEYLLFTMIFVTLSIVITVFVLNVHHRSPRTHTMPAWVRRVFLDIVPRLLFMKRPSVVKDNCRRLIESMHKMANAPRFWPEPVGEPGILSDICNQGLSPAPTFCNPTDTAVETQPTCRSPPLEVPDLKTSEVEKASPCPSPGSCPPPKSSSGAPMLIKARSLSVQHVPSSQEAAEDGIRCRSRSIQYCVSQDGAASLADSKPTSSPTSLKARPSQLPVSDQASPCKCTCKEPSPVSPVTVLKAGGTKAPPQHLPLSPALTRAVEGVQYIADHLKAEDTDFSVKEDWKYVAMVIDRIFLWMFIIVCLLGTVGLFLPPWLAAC
Sequence (P12390 whole entry): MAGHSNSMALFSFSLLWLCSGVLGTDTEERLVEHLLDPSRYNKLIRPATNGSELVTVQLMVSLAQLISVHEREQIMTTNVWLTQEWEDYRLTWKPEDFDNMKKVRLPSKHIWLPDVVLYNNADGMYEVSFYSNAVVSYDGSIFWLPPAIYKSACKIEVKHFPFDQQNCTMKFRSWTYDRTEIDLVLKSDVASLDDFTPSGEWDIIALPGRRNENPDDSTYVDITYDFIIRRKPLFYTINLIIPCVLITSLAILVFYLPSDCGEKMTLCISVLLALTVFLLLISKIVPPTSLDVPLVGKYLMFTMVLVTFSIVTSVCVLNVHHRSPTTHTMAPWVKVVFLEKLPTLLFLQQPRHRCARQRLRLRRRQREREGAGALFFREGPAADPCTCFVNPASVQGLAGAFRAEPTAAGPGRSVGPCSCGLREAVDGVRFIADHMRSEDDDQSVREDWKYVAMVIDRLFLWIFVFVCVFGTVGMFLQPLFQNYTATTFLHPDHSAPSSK
Readout Name: Ki (nM)
Write the value in nM as a bare number.

{"columns": ["Molecule", "Ki (nM)"],
 "data": [
  ["Nc1cncc(OC[C@@H]2CCN2)c1", 0.082]
]}

Lookup: Notebook entry, Neuronal acetylcholine receptor; alpha4/beta2 (Rattus norvegicus, UniProt P09483+P12390) assay: Ki of `Cc1ccc(OC[C@H]2CCN2)cn1` = ?
Found: 0.053

Lookup: Notebook entry, Neuronal acetylcholine receptor; alpha4/beta2 (Rattus norvegicus, UniProt P09483+P12390) assay: Ki of `Fc1ccc(OC[C@H]2CCN2)cn1` = ?
Found: 0.066

Lookup: Notebook entry, Neuronal acetylcholine receptor; alpha4/beta2 (Rattus norvegicus, UniProt P09483+P12390) assay: Ki of `CCc1cncc(OC[C@@H]2CCN2)c1` = ?
Found: 0.1

###

biological target: Neuronal acetylcholine receptor; alpha4/beta2 (Rattus norvegicus, UniProt P09483+P12390); assay: Binding affinity towards Nicotinic acetylcholine receptor alpha4-beta2 in rat brain using [3H]-cytisine as radioligand
Readout Name: pKi
// field semantics: pKi = negative decimal log of concentration (mol/L)

Guide cases for pKi, answers given:
{"columns": ["Molecule", "Target Of Assay", "Quantitative Result"],
 "data": [
  ["Fc1cncc(OC[C@@H]2CCN2)c1", "Neuronal acetylcholine receptor; alpha4/beta2 (Rattus norvegicus, UniProt P09483+P12390)", 10.12],
  ["Cc1cncc(OC[C@H]2CCN2)c1", "Neuronal acetylcholine receptor; alpha4/beta2 (Rattus norvegicus, UniProt P09483+P12390)", 9.80]
]}

Lookup: Which pKi value belongs to `Brc1cncc(OC[C@@H]2CCN2)c1` ?
Found: 9.74

Lookup: Which pKi value belongs to `c1cncc(OC[C@@H]2CCN2)c1` ?
Found: 10.28
